Procedure details: Selectivity index, ratio of Ki for human CatL to Ki for Trypanosoma brucei rhodesiense rhodesain
Readout type: Ratio Ki

molecule=N#CC1(NC(=O)[C@H](Cc2ccc(OCC3CCC3)c(Cl)c2)NC(=O)c2cnn(-c3ccc(F)cc3)n2)CC1 recorded_value=20
molecule=N#CC1(NC(=O)[C@H](Cc2ccc(OC(F)(F)F)c(Cl)c2)NC(=O)c2cnn(-c3ccc(F)nc3)n2)CC1 recorded_value=10
molecule=N#CC1(NC(=O)[C@H](Cc2ccc(Cl)cc2)NC(=O)c2cnn(-c3ccc(F)cc3)n2)CC1 recorded_value=507
molecule=CC(C)(C)n1ncc(C(=O)N[C@@H](Cc2ccc(OC(F)(F)F)c(Cl)c2)C(=O)NC2(C#N)CC2)n1 recorded_value=0.3
molecule=Cn1ncc(C(=O)N[C@@H](Cc2ccc(OC(F)(F)F)c(Cl)c2)C(=O)NC2(C#N)CC2)n1 recorded_value=0.7

----------
Procedure details: Clearance in C57BL/6J mouse at 1.5 mg/kg, iv as bolus dose by LC-MS/MS analysis
Type: ADME, organism-based
Cond: in vivo
Readout type: clearance

molecule=N#CC1(NC(=O)[C@H](Cc2ccc(OC(F)(F)F)c(Cl)c2)NC(=O)c2cnn(-c3cccnc3)n2)CC1 recorded_value="22.6 mL/min/kg"
molecule=CC(C)n1ncc(C(=O)N[C@@H](Cc2ccc(OC(F)(F)F)c(Cl)c2)C(=O)NC2(C#N)CC2)n1 recorded_value="32.9 mL/min/kg"
molecule=Cn1ncc(C(=O)N[C@@H](Cc2ccc(OC(F)(F)F)c(Cl)c2)C(=O)NC2(C#N)CC2)n1 recorded_value="22.8 mL/min/kg"

----------
Procedure details: Clearance in C57BL/6J mouse at 1.3 mg/kg, iv as bolus dose by LC-MS/MS analysis
Type: ADME, organism-based
Cond: in vivo
Readout type: clearance

molecule=CC(C)(C)n1ncc(C(=O)N[C@@H](Cc2ccc(OC(F)(F)F)c(Cl)c2)C(=O)NC2(C#N)CC2)n1 recorded_value="17 mL/min/kg"
molecule=N#CC1(NC(=O)[C@H](Cc2ccc(Cl)c(Cl)c2)NC(=O)c2cnn(-c3ccc(F)cc3)n2)CC1 recorded_value="< 4.6 mL/min/kg"

----------
Procedure details: Volume of distribution at steady state in C57BL/6J mouse at 0.8 mg/kg, iv as bolus dose by LC-MS/MS analysis
Type: ADME, organism-based
Cond: in vivo, read-out: Vdss
Readout type: Vd (L/kg)

molecule=N#CC1(NC(=O)[C@H](Cc2ccc(OC(F)(F)F)c(Cl)c2)NC(=O)c2cnn(-c3ccc(F)nc3)n2)CC1 recorded_value=1.2

----------
Some molecules, each annotated with its measured Ki.
Target desc: Procathepsin L (Homo sapiens)
Sequence (P07711 whole entry): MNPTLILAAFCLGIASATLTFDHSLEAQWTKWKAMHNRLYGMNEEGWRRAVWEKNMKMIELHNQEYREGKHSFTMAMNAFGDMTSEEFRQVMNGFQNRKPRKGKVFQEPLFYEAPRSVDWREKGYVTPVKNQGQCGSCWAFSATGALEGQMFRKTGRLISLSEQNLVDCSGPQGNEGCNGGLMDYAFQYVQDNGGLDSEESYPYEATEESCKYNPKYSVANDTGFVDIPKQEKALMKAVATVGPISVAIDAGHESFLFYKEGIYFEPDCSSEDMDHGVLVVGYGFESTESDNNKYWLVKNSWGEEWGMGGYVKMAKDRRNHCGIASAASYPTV
Readout type: Ki (nM)

molecule=N#CC1(NC(=O)[C@H](Cc2ccc(Cl)c(Cl)c2)NC(=O)c2cnn(C3CCC3)n2)CC1 readout_type=Ki recorded_value=7
molecule=N#CC1(NC(=O)[C@H](Cc2ccc(OCC3CCC3)c(Cl)c2)NC(=O)c2cnn(-c3ccc(F)cc3)n2)CC1 readout_type=Ki recorded_value=314
molecule=N#CC1(NC(=O)[C@H](Cc2ccc(OC(F)(F)F)c(Cl)c2)NC(=O)c2cnn(-c3ccccc3)n2)CC1 readout_type=Ki recorded_value=81.7
molecule=N#CC1(NC(=O)[C@H](Cc2ccc(OC(F)(F)F)c(Cl)c2)NC(=O)c2cnn(-c3ccc(Br)cc3)n2)CC1 readout_type=Ki recorded_value=1080
molecule=N#CC1(NC(=O)[C@H](Cc2ccc(OC(F)(F)F)c(Cl)c2)NC(=O)c2cnn(-c3ccncc3)n2)CC1 readout_type=Ki recorded_value=82
molecule=N#CC1(NC(=O)[C@H](Cc2ccc(OC(F)(F)F)c(Cl)c2)NC(=O)c2cnn(C3CCC3)n2)CC1 readout_type=Ki recorded_value=11
molecule=N#CC1(NC(=O)[C@H](Cc2ccc(OC(F)(F)F)c(Cl)c2)NC(=O)c2cnn(-c3ccc(F)nc3)n2)CC1 readout_type=Ki recorded_value=143
